SYSTEM_TESTED: ERα (Homo sapiens)
Sequence (P03372 1-595): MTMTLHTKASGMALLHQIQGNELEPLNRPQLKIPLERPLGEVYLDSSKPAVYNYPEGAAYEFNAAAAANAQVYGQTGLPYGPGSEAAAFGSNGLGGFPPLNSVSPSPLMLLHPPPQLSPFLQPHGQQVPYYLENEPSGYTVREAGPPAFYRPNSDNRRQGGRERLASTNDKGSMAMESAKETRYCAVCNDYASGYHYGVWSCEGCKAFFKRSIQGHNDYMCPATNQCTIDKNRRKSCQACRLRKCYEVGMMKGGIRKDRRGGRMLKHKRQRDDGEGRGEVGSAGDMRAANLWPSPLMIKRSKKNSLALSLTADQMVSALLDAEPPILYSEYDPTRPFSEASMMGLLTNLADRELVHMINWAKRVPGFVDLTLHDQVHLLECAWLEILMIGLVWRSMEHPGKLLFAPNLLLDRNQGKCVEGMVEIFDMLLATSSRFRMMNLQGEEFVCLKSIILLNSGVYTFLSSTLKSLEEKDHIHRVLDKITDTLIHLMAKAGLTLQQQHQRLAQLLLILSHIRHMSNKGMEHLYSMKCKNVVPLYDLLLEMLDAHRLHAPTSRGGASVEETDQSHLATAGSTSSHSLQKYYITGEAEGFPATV
EXPERIMENTAL_DETAILS: Degradation of ERα in MCF-7 cells (immunoblotting, 4 h)
Assay type: cell-based
ASSAY_SETUP: 10nM compound
MEASURED_PARAMETER: Degradation rate (%) of ERα in MCF-7 cells

| MOLECULE | SYSTEM_TESTED | ASSAY_RESULT |
| --- | --- | --- |
| O=C1CCC(N2Cc3c(ccc4c3OCC43CCN(C4CCN(C5CCN(c6ccc(C7c8ccc(O)cc8CCC7c7ccccc7)cc6)CC5)CC4F)CC3)C2=O)C(=O)N1 (centres unmarked) | ERα (Homo sapiens) | 71 |
| O=C1CCC(N2Cc3c(ccc4c3OCC43CCN(CC(=O)N4CCC5(CC4)CCN(c4ccc([C@@H]6c7ccc(O)cc7CC[C@@H]6c6ccccc6)cc4)CC5)CC3)C2=O)C(=O)N1 (some centres unmarked) | ERα (Homo sapiens) | 62 |
| O=C1CCC(N2C(=O)c3cc4c(cc3C2=O)OC2(CC4)CCN(CC3CCC4(CC3)CCN(c3ccc([C@@H]5c6ccc(O)cc6CC[C@@H]5c5ccccc5)cc3)CC4)CC2)C(=O)N1 (some centres unmarked) | ERα (Homo sapiens) | -8 |
| O=C1CCC(N2Cc3ccc4c(c3C2=O)OCC2(CCN(CC3CCN(c5ccc([C@@H]6c7ccc(O)cc7CC[C@@H]6c6ccccc6)cc5)CC3)CC2)C4)C(=O)N1 (some centres unmarked) | ERα (Homo sapiens) | -12 |
| O=C1CCC(N2Cc3c(ccc4c3OCC43CCN(C(=O)CN4CC5(C4)CN(c4ccc([C@@H]6c7ccc(O)cc7CC[C@@H]6c6ccccc6)cc4)C5)CC3)C2=O)C(=O)N1 (some centres unmarked) | ERα (Homo sapiens) | 64 |

* * *

System: T-47D cells
EXPERIMENTAL_DETAILS: Inhibition of cell proliferation in T-47D cells (CCK-8, 6 days)
Type: cell-based
ASSAY_SETUP: 6 days of treatment, Table 3
Rule for this label: Condition met means IC50 is less than 6 nM; Condition not met means IC50 is at least 6 nM.

| MOLECULE | ASSIGNED_CATEGORY |
| --- | --- |
| N#CC1(CN2CCC3(CC2)COc2c3ccc3c2CN(C2CCC(=O)NC2=O)C3=O)CCN(CC2CCN(c3ccc([C@@H]4c5ccc(O)cc5CC[C@@H]4c4ccccc4)cc3)CC2)CC1 (some centres unmarked) | Condition met |
| O=C1CCC(N2Cc3cc4c(cc3C2=O)CCC2(CN(C3CCC(N5CCN(c6ccc([C@@H]7c8ccc(O)cc8CC[C@@H]7c7ccccc7)cc6)CC5)CC3)C2)O4)C(=O)N1 (some centres unmarked) | Condition not met |
| C[C@@H]1C[C@H](N2CCC3(CC2)COc2c3ccc3c2CN(C2CCC(=O)NC2=O)C3=O)CCN1C1CC2(CCN(c3ccc([C@@H]4c5ccc(O)cc5CC[C@@H]4c4ccccc4)cc3)CC2)C1 (some centres unmarked) | Condition met |
| O=C1CCC(N2Cc3c(ccc4c3OCC43CCN(C(=O)[C@H]4CC[C@@H](N(CC5CC5)C5CCN(c6ccc([C@@H]7c8ccc(O)cc8CC[C@@H]7c7ccccc7)cc6)CC5)CC4)CC3)C2=O)C(=O)N1 (some centres unmarked) | Condition met |
| COC(=O)[C@@H]1C[C@H](N2CCC3(CC2)COc2c3ccc3c2CN(C2CCC(=O)NC2=O)C3=O)CCN1C1CC2(CCN(c3ccc([C@@H]4c5ccc(O)cc5CC[C@@H]4c4ccccc4)cc3)CC2)C1 (some centres unmarked) | Condition met |

* * *

SYSTEM_TESTED: UniProtKB P03372
EXPERIMENTAL_DETAILS: Degradation of ERα in MCF-7 cells (immunoblotting, 4 h)
Type: cell-based
ASSAY_SETUP: 10nM compound
MEASURED_PARAMETER: Degradation rate (%) of ERα in MCF-7 cells

| COMPOUND | ASSAY_RESULT |
| --- | --- |
| CCN(CC(=O)N1CCC2(CC1)COc1c2ccc2c1CN(C1CCC(=O)NC1=O)C2=O)CC1CCN(c2ccc([C@@H]3c4ccc(O)cc4CC[C@@H]3c3ccccc3)cc2)CC1 (some centres unmarked) | 53% |
| O=C1CCC(N2Cc3c(ccc4c3OCC43CCN(C4CCC(OC5CCN(c6ccc([C@@H]7c8ccc(O)cc8CC[C@@H]7c7ccccc7)cc6)CC5)CC4)CC3)C2=O)C(=O)N1 (some centres unmarked) | 72% |
| O=C1CCC(N2Cc3c(ccc4c3OCC43CCN(C4CC5CC4CN5C4CC5(CCN(c6ccc([C@@H]7c8ccc(O)cc8CC[C@@H]7c7ccccc7)cc6)CC5)C4)CC3)C2=O)C(=O)N1 (some centres unmarked) | 60% |
| O=C1CCC(N2Cc3ccc4c(c3C2=O)OC2(CC4)CCN(CC3CCN(c4ccc([C@@H]5c6ccc(O)cc6CC[C@@H]5c5ccccc5)cc4)CC3)CC2)C(=O)N1 (some centres unmarked) | -2% |
| CN(CC(=O)N1CCC2(CC1)COc1c2ccc2c1CN(C1CCC(=O)NC1=O)C2=O)C1CCC2(CC1)CCN(c1ccc([C@@H]3c4ccc(O)cc4CC[C@@H]3c3ccccc3)cc1)CC2 (some centres unmarked) | 75% |
| O=C1CCC(N2Cc3c(ccc4c3OCC43CCN([C@H]4CCN(C5CC6(CCN(c7ccc([C@@H]8c9ccc(O)cc9CC[C@@H]8c8ccccc8)cc7)CC6)C5)C[C@H]4F)CC3)C2=O)C(=O)N1 (some centres unmarked) | 70% |
| C[C@@H]1Cc2c(ccc3[nH]ncc23)[C@@H](c2c(F)cc(N3CCN(C[C@H]4CC[C@H](C(=O)N5CCC6(CC5)COc5c6ccc6c5CN(C5CCC(=O)NC5=O)C6=O)CC4)CC3)cc2F)N1CC(F)F (some centres unmarked) | 22% |
| COC(=O)[C@@H]1C[C@H](N2CCC3(CC2)COc2c3ccc3c2CN(C2CCC(=O)NC2=O)C3=O)CCN1C1CC2(CCN(c3ccc([C@@H]4c5ccc(O)cc5CC[C@@H]4c4ccccc4)cc3)CC2)C1 (some centres unmarked) | 83% |
| O=C1CCC(N2Cc3cc4c(cc3C2=O)CCC2(CN(C(=O)[C@H]3CC[C@H](CN5CCN(c6ccc([C@@H]7c8ccc(O)cc8CC[C@@H]7c7ccccc7)cc6)CC5)CC3)C2)O4)C(=O)N1 (some centres unmarked) | 63% |
| O=C1CCC(N2Cc3c(ccc4c3OCC43CCN(CC4(F)CCN(CC5CCN(c6ccc([C@@H]7c8ccc(O)cc8CC[C@@H]7c7ccccc7)cc6)CC5)CC4)CC3)C2=O)C(=O)N1 (some centres unmarked) | 55% |
| O=C1CCC(N2Cc3c(ccc4c3OCC43CCN(CC(=O)N4CC[C@]5(CCN(c6ccc([C@@H]7c8ccc(O)cc8CC[C@@H]7c7ccccc7)cc6)C5)C4)CC3)C2=O)C(=O)N1 (some centres unmarked) | 51% |
| C[C@@H]1Cc2c(ccc3[nH]ncc23)C(c2ccc(N3CCC4(CCN(C(=O)CN5CCC6(CC5)COc5c6ccc6c5CN(C5CCC(=O)NC5=O)C6=O)CC4)CC3)cn2)N1CC(F)(F)F (some centres unmarked) | 66% |
| C[C@@H]1Cc2c([nH]c3ccccc23)[C@@H](c2c(F)cc(N3CCC4(CCN(CC(=O)N5CCC6(CC5)COc5c6ccc6c5CN(C5CCC(=O)NC5=O)C6=O)C4)CC3)cc2F)N1CC(F)F (some centres unmarked) | 74% |
| C[C@@H]1Cc2c([nH]c3ccccc23)[C@@H](c2c(F)cc(N3CCC4(CCN(C(=O)CN5CCC6(CC5)COc5c6ccc6c5CN(C5CCC(=O)NC5=O)C6=O)C4)CC3)cc2F)N1CC(F)F (some centres unmarked) | 66% |
| CNC(=O)[C@@H]1CC(N2CCC3(CC2)COc2c3ccc3c2CN(C2CCC(=O)NC2=O)C3=O)CCN1C1CC2(CCN(c3ccc([C@@H]4c5ccc(O)cc5CC[C@@H]4c4ccccc4)cc3)CC2)C1 (some centres unmarked) | 71% |
| O=C1CCC(N2Cc3c(ccc4c3OCC43CCN(C(=O)CC4CCN(c5ccc([C@@H]6c7ccc(O)cc7CC[C@@H]6c6ccccc6)cc5)CC4)CC3)C2=O)C(=O)N1 (some centres unmarked) [H16] | 37% |
| O=C1CCC(N2Cc3c(ccc4c3OCC43CCN(C(=O)C4CC5(CCN(c6ccc([C@@H]7c8ccc(O)cc8CC[C@@H]7c7ccccc7)cc6)CC5)C4)CC3)C2=O)C(=O)N1 (some centres unmarked) | 32% |
| CCNC(=O)[C@@H]1CC(N2CCC3(CC2)COc2c3ccc3c2CN(C2CCC(=O)NC2=O)C3=O)CCN1C1CC2(CCN(c3ccc([C@@H]4c5ccc(O)cc5CC[C@@H]4c4ccccc4)cc3)CC2)C1 (some centres unmarked) | 84% |
| O=C1CCC(N2Cc3c(ccc4c3OCC43CCN(C(=O)C4CCC(CN5CCN(c6ccc(C7c8ccc(O)cc8CCC7c7ccccc7)cc6)CC5)CC4)CC3)C2=O)C(=O)N1 (centres unmarked) [C5] | 66% |
| C[C@@H]1CN(C(=O)C2CCN(c3cc(F)c(C4c5ccc(O)cc5C[C@@H](C)N4CC(F)F)c(F)c3)CC2)CCC1N1CCC2(CC1)COc1c2ccc2c1CN(C1CCC(=O)NC1=O)C2=O (some centres unmarked) | 56% |

# credit: patent EP4656642A1
